Overview of reported Kd across a group of binders:
# assaySystem: T1, EsCas13d, nuclease-dead (Eubacterium siraeum, UniProt B0MS50, R295A;H300A;R849A;H854A)
# T1 sequence: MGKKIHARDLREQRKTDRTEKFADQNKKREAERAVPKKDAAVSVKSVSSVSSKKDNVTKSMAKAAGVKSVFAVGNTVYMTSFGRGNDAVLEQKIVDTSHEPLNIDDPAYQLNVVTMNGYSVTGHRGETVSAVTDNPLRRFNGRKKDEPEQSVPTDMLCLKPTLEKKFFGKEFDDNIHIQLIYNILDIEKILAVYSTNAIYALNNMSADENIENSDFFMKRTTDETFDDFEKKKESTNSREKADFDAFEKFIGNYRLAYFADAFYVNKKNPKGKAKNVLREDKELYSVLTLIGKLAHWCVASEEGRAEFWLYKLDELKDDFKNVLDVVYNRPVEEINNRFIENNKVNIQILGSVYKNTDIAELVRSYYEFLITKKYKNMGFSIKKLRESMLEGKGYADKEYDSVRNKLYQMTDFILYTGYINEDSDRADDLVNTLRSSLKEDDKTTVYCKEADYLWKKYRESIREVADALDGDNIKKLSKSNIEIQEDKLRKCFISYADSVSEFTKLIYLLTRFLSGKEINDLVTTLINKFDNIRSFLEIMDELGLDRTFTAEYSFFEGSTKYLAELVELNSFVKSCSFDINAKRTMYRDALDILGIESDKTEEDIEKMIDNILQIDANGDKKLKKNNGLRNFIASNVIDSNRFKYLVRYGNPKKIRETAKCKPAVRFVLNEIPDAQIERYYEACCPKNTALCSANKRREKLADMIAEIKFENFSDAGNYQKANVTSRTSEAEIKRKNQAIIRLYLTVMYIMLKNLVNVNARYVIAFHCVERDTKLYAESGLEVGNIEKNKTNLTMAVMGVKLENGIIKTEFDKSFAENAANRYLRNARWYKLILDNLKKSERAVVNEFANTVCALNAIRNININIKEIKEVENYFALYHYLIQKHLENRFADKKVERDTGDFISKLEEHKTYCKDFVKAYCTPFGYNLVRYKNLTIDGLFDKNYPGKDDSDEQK
# assayComment: crRNA (strand 1, pre-loaded); Mg2+; 40 mM Tris-HCl pH 7.5, 150 mM NaCl, 6 mM MgCl2, 1 mM DTT, 0.1% Tween-20, 0.2 mg/ml BSA; 25 C; 10 min per concentration, then washed
# conditionSummary: tags: His6-TwinStrep-SUMO cleaved; N-terminal SNAP kept (SNAP-Surface 488); label: 3' end held by stalled T7 RNA polymerase
Report as a plain number; the unit nM is understood.

Answered examples (2):
target 1 insA 3' of 19,insU 3' of 5 (mixed) RNA 1: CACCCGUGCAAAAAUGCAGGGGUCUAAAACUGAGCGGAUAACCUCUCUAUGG RNA 2: GGGAAUGGAUCCACAUCUACGAAUUCGUACCAUAAGAGAGGUUAUCCGUCUCACCGAGAUCGGAAGAGCACACGU :: 41
target 2 MT 5'PFS GGA 3'PFS AAG (mixed) RNA 1: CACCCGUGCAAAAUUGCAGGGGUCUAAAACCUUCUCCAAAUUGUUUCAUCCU RNA 2: GGGAAUGGAUCCACAUCUACGAAUUCGGAAGGAUGAAACAAUUUGGAGAAGAAGAGAUCGGAAGAGCACACGU :: 9.3

Now let's try a different one.
-- ask # input binder: target 1 MT 5'PFS GCU 3'PFS UCA (mixed) RNA 1: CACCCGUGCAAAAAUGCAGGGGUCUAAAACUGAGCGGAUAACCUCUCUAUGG RNA 2: GGGAAUGGAUCCACAUCUACGAAUUCGCUCCAUAGAGAGGUUAUCCGCUCAUCAAGAUCGGAAGAGCACACGU ; wanted: its Kd
-- reply 27.5
